tested on: T-47D breast; experiment: NCI-60 one-dose screen, 48 h; conditions: 10 µM unless noted
About 83,000 compounds went through this panel and 20% of them were active in at least one assay; those are over-represented in the sample as a whole. Calls of active or inactive are those of the source. The calls were made as follows: active = growth percent below 10; inactive = the rest.
Answer with one of the outcomes t for active, f for inactive

Examples from the recorded data:
Cc1ccc(-c2cc3nc(-c4ccccc4)nc(C(Cl)Cl)n3n2)cc1 = t
Clc1ccc(-c2nc3ccccc3s2)cc1Cl = f
NC1=C(/C(N)=N/O)C(c2ccccc2)c2ccc3ccccc3c2O1 (stereo not given) = f

Tell me the recorded outcome of this test for COc1cc(-c2nn(C(=O)NS(=O)(=O)c3ccccc3)cc2-c2ccncc2)ccc1Cl .
f

Tell me the recorded outcome of this test for Cc1cc(N/N=C/c2nc(-c3ccccc3)oc2C)c2cc(Br)ccc2n1 .
f

Tell me the recorded outcome of this test for Cn1cc(-c2cnc3ccc(NC(=O)Nc4ccc(F)c(Br)c4)cc3n2)cn1 .
t

Tell me the recorded outcome of this test for O=C1/C(=C/c2ccccc2)Oc2ccc(O)c(I)c21 .
f

Tell me the recorded outcome of this test for ClC(Cl)c1nc(-c2cccnc2)n2nc(-c3ccccc3)cc2n1 .
f

Tell me the recorded outcome of this test for O=c1[nH]c2ccc(Br)cc2c2c1C(c1ccc(Cl)cc1)c1c(ncn3nc(-c4ccco4)nc13)O2 (stereo not given) .
f

Tell me the recorded outcome of this test for COc1cc(C2C3=C(COC3=O)Nc3cc4c(cc32)OCO4)cc2c1OCO2 (stereo not given) .
f

* * *

system: T-47D breast; assay: NCI-60 one-dose screen, 48 h; settings: 10 µM unless noted
The panel holds about 83,000 compounds, 20% with a hit somewhere; the sample as a whole holds those more often. The source made the active and inactive calls. Rule for the calls: active = growth percent below 10; inactive = the rest.
Answer with one of the outcomes Yes (active), No (inactive)

Tell me the recorded outcome of this test for CCN(CC)c1ccc2[nH]c3c(C(N)=O)cc(=O)c(=O)c=3oc2c1 .
Yes

Tell me the recorded outcome of this test for COc1ccc(C(=O)c2cc(OC)c(OC)c(OC)c2OC)cc1O .
No

* * *

Kindly supply the reported growth values for the records listed here.
tested on: NCI-H23 lung; test: NCI-60 one-dose screen, 48 h (100 = growth as untreated, 0 = no growth, -100 = all killed); details: 10 µM unless noted
The panel holds about 83,000 compounds, 20% with a hit somewhere; the sample as a whole holds those more often.
Give bare numbers, in %.

CCN(CC)CCOc1ccc(/C(=C(/C)c2ccccc2)c2ccc(OC(C)=O)cc2)cc1 = 95.7
COc1cc(/C=C/C(=O)c2ccc(Nc3ncnc4cc(OC)c(OC)cc34)cc2)cc(OC)c1 = 94.7
Clc1ccccc1-c1nc2ccccc2[nH]1 = 90
C=C[C@@H]1C[C@@H]2Cc3ccccc3N1O2 = 98.9
COc1cc(/C=N\NC(=O)CN2CCN(c3cc4c(cc3F)c(=O)c(C(=O)N/N=C/c3cc(OC)c(OC)c(OC)c3)cn4C3CC3)CC2)cc(OC)c1OC = -36.4
Cn1c(=O)c2[nH]c(C3CC=CCC3)nc2n(C)c1=O (stereo not given) = 98.2
CC(O)CN1CCCCC1 (stereo not given) = 100
O=C(Nc1cccc(-n2cc(-c3ccncc3)c(-c3ccc(Cl)c(O)c3)n2)c1)Nc1cc(C(F)(F)F)cc(C(F)(F)F)c1 = -7.93
COc1ccc(C2=C(c3cc(OC)c(OC)c(OC)c3)C(=O)CC2)cc1 = 14.2

Now consider the entry below.
Fill blank: measured growth of the compound O=[N+]([O-])c1ccc(C(c2ccccc2)c2ccccc2)cc1 is ____.
89.6

* * *

test system: OVCAR-3 ovarian; experiment: NCI-60 one-dose screen, 48 h (100 = growth as untreated, 0 = no growth, -100 = all killed); settings: 10 µM unless noted
Compounds without any hit were thinned out: in the full panel of roughly 83,000, 20% have a hit.
Kindly supply the reported growth values for the records listed here.
Numbers only, in %.

OC(c1cc2cc(Br)ccc2c2cc(Br)ccc12)C1CCCCN1 (stereo unspecified) = -91.9
CCCCNC(=O)Oc1ccc(/C(=C(\C)c2ccccc2)c2ccc(OCCN(CC)CC)cc2)cc1 = 75.1
O=C(C1=Cc2cc3ccccc3n2Cc2cnnn21)c1ccccc1 = 26.9

Could you tell me growth for each of these compounds? They are listed below.
1. NC(=O)CCCN1C/C(=C\c2ccccc2)C(=O)c2ccccc21
2. Cn1c(=O)c2[nH]c(C3CC=CCC3)nc2n(C)c1=O (stereo unspecified)
3. COc1ccc(C(=O)N2NC(=O)/C(=C/c3ccccc3F)N=C2c2ccccc2)cc1
4. Cc1ccc(C(=O)C2=Cc3cc4ccccc4n3Cc3cnnn32)cc1
5. CCN(CC)c1ccc(C(=N)c2ccc(N(CC)CC)cc2)cc1

109
105
114
109
-38.3

Could you tell me growth for each of these compounds? They are listed below.
1. CC(C)(C)n1cc(-c2ccnc(NCCCNS(=O)(=O)c3ccc(Cl)cc3)c2)c(-c2cccc(O)c2)n1
2. Cc1ccc2ccccc2c1C[n+]1ccccc1
3. O=C(NS(=O)(=O)c1ccccc1)n1cc(-c2ccncc2)c(-c2ccc(Cl)c(O)c2)n1

4.31
102
117

* * *

test system: SK-MEL-5 melanoma; assay: NCI-60 one-dose screen, 48 h (100 = growth as untreated, 0 = no growth, -100 = all killed); details: 10 µM unless noted
The panel holds about 83,000 compounds, 20% with a hit somewhere; the sample as a whole holds those more often.
readout-type: growth (%)
One number for each entry, in %.

Nc1cccc(-c2nc3sccn3c2-c2ccnc(NCCCNS(=O)(=O)c3cccc4ccccc34)n2)c1 = 4.1
Cc1ccc(S(=O)(=O)c2nc(-c3ccccc3)oc2S(C)(=O)=O)cc1 = 88.8

Could you tell me growth for each of these molecules? They are listed below.
1. Fc1ccc(Nc2nc(NCCNc3ccnc4cc(Cl)ccc34)nc(N3CCOCC3)n2)cc1
2. O=C(Oc1ccccc1[N+](=O)[O-])C1CCCN1C(=O)OCc1ccccc1 (centres undefined)
3. O=C(Nc1cccc(-n2cc(-c3ccncc3)c(-c3ccc(Cl)c(O)c3)n2)c1)Nc1ccc(Cl)c(C(F)(F)F)c1
4. COc1ccc(C2C(C#N)=C(N)Oc3c2ccc2ccccc32)cc1 (centres undefined)

43.2
101
-100
31.2

Could you tell me growth for each of these molecules? They are listed below.
1. COc1ccc(C2NN=C3c4ccccc4CCC32)cc1 (centres undefined)
2. O=C(Nc1cccc(-n2cc(-c3ccncc3)c(-c3ccc(Cl)c(O)c3)n2)c1)c1ccccc1
3. COc1ccc(C(=O)NC(=O)Nc2cc3c(cc2F)/C(=C/c2[nH]c(C)c(CCC(=O)O)c2C)C(=O)N3)c(F)c1

1. 15.2
2. 59.4
3. 59.6

* * *

system: PC-3 prostate; test: NCI-60 one-dose screen, 48 h; details: 10 µM unless noted
About 83,000 compounds went through this panel and 20% of them were active in at least one assay; those are over-represented in the sample as a whole. Calls of active or inactive are those of the source. The calls were made as follows: active = growth percent below 10; inactive = the rest.
Answer with one of the outcomes active, inactive

Examples from the recorded data:
Cn1ccc(Nc2nccc(Oc3ccc(C(=O)Nc4cccc(F)c4)c(Cl)c3)n2)c1 = inactive
COc1ccccc1CNCCCN1C(=O)c2ccc3c4c(ccc(c24)C1=O)C(=O)N(CCCNCCCCNCCCN)C3=O = active
Cc1csc(NC(c2ccc(Br)cc2)c2c(C)nc3ccccn23)n1 (stereo not given) = inactive
C/C=C/C1=CN2C(=O)c3cc(OC4OC(C)C(NC)C(C)(O)C4O)c(C)cc3N=C[C@@H]2C1 (stereo not given in full) = active

Tell me the recorded outcome of this test for O=[N+]([O-])c1cnc(Sc2ccncn2)s1 .
inactive

* * *

system: IGROV1 ovarian; test: NCI-60 one-dose screen, 48 h; details: 10 µM unless noted
The panel holds about 83,000 compounds, 20% with a hit somewhere; the sample as a whole holds those more often. Active and inactive are the calls of the source. How the source made its calls: active means growth percent below 10; inactive means the rest.
Answer with one of the outcomes class 1 (active), class 0 (inactive)

Examples from the recorded data:
CCCN=C1NC(=O)/C(=C/c2nc(-c3ccc(OC)cc3)n3ccccc23)S1 = class 0
Cc1ccc(S(=O)(=O)Nc2c(Br)cc(Br)cc2C(N)=O)cc1 = class 0
COc1cc(-c2nn(C(=O)NS(=O)(=O)c3ccccc3)cc2-c2ccncc2)ccc1Cl = class 0
C=C(C)[C@@H]1C[C@@H]2Cc3cc(F)ccc3N1O2 = class 0
O=S(=O)(NCCCNc1nccc(-n2ccc3cccnc32)n1)c1ccc(Br)cc1 = class 0
CCC(C)/C(=C\C#N)NCCCN/C(=C/C#N)C(C)CC (stereo unspecified) = class 0

Tell me the recorded outcome of this test for Cc1nc2cncc(C#Cc3cncc(C(=O)Nc4ccc(CN5CCN(C)CC5)c(C(F)(F)F)c4)c3)c2nc1C .
class 1

* * *

Tested on: BT-549 breast
Assay: NCI-60 one-dose screen, 48 h
Conditions: 10 µM unless noted
Protocol: Growth inhibition of the BT-549 human tumor cell line is measured as a screen for anti-cancer activity. Cells are grown in 96 well plates and exposed to the test compound for 48 hours. Compounds are tested at a single concentration, which is 10^-5 M for most compounds. The reported endpoint is percent growth (GI% or GIPRCNT), where numbers from 0 - 100% represent growth inhibition, and numbers from -100% - 0 represent cell death. For example, a value of 40 represents 60% growth inhibition. […]
About 83,000 compounds went through this panel and 20% of them were active in at least one assay; those are over-represented in the sample as a whole. Active and inactive are the calls of the source. The calls were made as follows: active = growth percent below 10; inactive = the rest.
Answer with one of the outcomes label 1 = active, label 0 = inactive

Tell me the recorded outcome of this test for O=[N+]([O-])c1cnc(Sc2ccncn2)s1 .
label 0

Tell me the recorded outcome of this test for COc1ccc(-c2ccc(-c3ccc(C(=N)N)cn3)s2)cc1OC .
label 0

Tell me the recorded outcome of this test for CCOC(=O)/C(C#N)=C1/C(=O)Nc2ccccc21 .
label 0

Tell me the recorded outcome of this test for CC(=O)Nc1ccc(/C=C/C(=O)c2ccccc2)cc1 .
label 0

Values were extracted from PubChem BioAssay (NCI).
